Assign pKd to each entry below.
MEASURED_ON: T1, PUF4 RNA-binding domain (Saccharomyces cerevisiae, UniProt P25339 537-888)
T1 sequence: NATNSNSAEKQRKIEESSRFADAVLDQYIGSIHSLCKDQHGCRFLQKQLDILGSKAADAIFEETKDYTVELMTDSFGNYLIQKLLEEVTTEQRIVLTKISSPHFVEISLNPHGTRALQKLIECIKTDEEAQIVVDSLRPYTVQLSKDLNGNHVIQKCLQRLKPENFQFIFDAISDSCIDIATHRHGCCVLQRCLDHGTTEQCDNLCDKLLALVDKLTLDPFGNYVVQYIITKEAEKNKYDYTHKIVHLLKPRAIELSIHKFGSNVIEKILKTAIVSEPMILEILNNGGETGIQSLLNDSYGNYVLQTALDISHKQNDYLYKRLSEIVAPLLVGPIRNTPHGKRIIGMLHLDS
MEASUREMENT_DESCRIPTION: Mg; RNA-MaP; 20 mM Na-HEPES pH 7.4, 30 mM KOAc, 0.75 mM MgCl2, 0.1% Tween-20, 5% glycerol, 0.1 mg/mL BSA, 2 mM DTT; 25 C; 0.0125-409.6 nM protein
PROTOCOL_CONDITIONS: tags: N-His6-TEV cleaved; C-SNAP kept, Cy3B-labelled; label: tethered on chip by stalled RNA polymerase
Expect pKd as a plain number equal to -log10 of the molar concentration.

Identify measured pKd associated with Ic_S2_P3E.1_K3.1_C3.1_H3.1_A3.1_[T5G]_[A6C]_F3.1_[T7A]_[A8G]_T3.1 (ssRNA) RNA: UUUGAUUAAUAUGAUAUCGUUCUUUCUUGUAGCAGUUCUUUCUCGAUAUCAUAUUAAUCUUU
6.12

Identify measured pKd associated with Ib_S4_P3E.1_K3.1_C3.1_H3.1_[A4C]_A3.1_[T5C]_F3.1_T3.1 (ssRNA) RNA: UUUGACAACUGAUCGUUCUUUCUUGUCCAUAUUCUUUCUCGAUCAGUUGUCUUU
6.35

Identify measured pKd associated with Ic_S4_P5E.1_K5.1_C5.1_H5.1_A5.1_[T5C]_[A7C]_F5.1_[A10T]_T5.1 (ssRNA) RNA: UUUGACAACUGAUCGUUCUUUCUUGUACUCUUUUUCUUUCUCGAUCAGUUGUCUUU
7.96

Identify measured pKd associated with Id_ii_S2_P5E.4_K5.3_C5.2_[C-2T]_H5.3_A5.1_F5.1_T5.2 (ssRNA) RNA: UUUGAUUAAUAUGAUAUCGUUCUUUCUUUACACUUAUUAUAUUCUUUCUCGAUAUCAUAUUAAUCUUU
6.14
